Experimental protocol: Example 1: plasma concentrations of lemborexant and metabolites
Assay type: in vivo, human
Test conditions: human, plasma, oral, 5 mg, lemborexant 5 mg dose; Month 3; read-out: Plasma concentration, Median
Experimental: Month 1 Assessment: Standard safety assessments were performed on the subject. A blood sample was collected for determination of plasma concentration of lemborexant and its metabolites, and the ISI, FSS, PGI-Insomnia, EQ-5D-3L, and eC-SSR were completed. Month 3 Assessment: All assessments conducted at the Month 1 Assessment were repeated. Month 6 Assessment: All assessments conducted at the Month 1 Assessment were repeated, and subjects completed the WPAI-GH.
Observable: concentration at 3 month
Answer shape: numeric part, then the unit.

## Input Returns the measured concentration at 3 month for the input compound. Input: Cc1ncc(OC[C@@]2(c3cccc(F)c3)C[C@H]2C(=O)Nc2ccc(F)cn2)c(C)n1
## Output 7.7 ng/mL

---

Experimental protocol: Example 1: plasma concentrations of lemborexant and metabolites
Format: in vivo, human
Test conditions: human, plasma, oral, 5 mg, lemborexant 5 mg dose; Month 6; read-out: Plasma concentration, Median
Observable: concentration at 6 month
Answer shape: numeric part, then the unit.

## Input Returns the measured concentration at 6 month for the input compound. Input: Cc1ncc(OC[C@@]2(c3cccc(F)c3)C[C@H]2C(=O)Nc2ccc(F)cn2)c(C)n1
## Output 6.9 ng/mL
